For each record, write down the corresponding ratio of IC50 for cells with mutant EGFR to IC50 for cells with wildtype EGFR (Mut/WT).
EXPERIMENTAL TARGET: EGFR Ex19del T854I (Homo sapiens, UniProt P00533, DEL746-750/T854I)
Construct: expressed in transfected cells; host or cells: Ba/F3 (retroviral transduction, pBabe-Puro based vectors)
ASSAY OVERVIEW: Ba/F3 drug screening, Cell Titer Glo, IC50 Mut/WT
Type: cell-based
COND: PACC; Ex19del T854I; Ba/F3; 72 hours
Output: the number by itself.

Using the record for CNC(=O)CN1CCC(Oc2cc3c(Nc4cccc(Cl)c4F)ncnc3cc2OC)CC1 , report its ratio of IC50 for cells with mutant EGFR to IC50 for cells with wildtype EGFR (Mut/WT).
0.2548

Please look up its ratio of IC50 for cells with mutant EGFR to IC50 for cells with wildtype EGFR (Mut/WT): COc1cc2ncnc(Nc3cccc(Cl)c3F)c2cc1OC(=O)N1CCN(C)C[C@H]1C
1.509

I have this compound here, COc1cc2ncnc(Nc3ccc(F)c(Cl)c3)c2cc1NC(=O)/C=C/CN1CCCCC1 , and I need its recorded ratio of IC50 for cells with mutant EGFR to IC50 for cells with wildtype EGFR (Mut/WT).
0.4127

Item under review: CN(C)C/C=C/C(=O)Nc1cc2c(Nc3ccc(Cl)c(Br)c3)ncnc2cn1 . Reported ratio of IC50 for cells with mutant EGFR to IC50 for cells with wildtype EGFR (Mut/WT)?
0.7019

====

EXPERIMENTAL TARGET: EGFR T790M (Homo sapiens, UniProt P00533, T790M)
Construct: expressed in transfected cells; host or cells: Ba/F3
ASSAY OVERVIEW: Ba/F3 drug screening, Cell Titer Glo, IC50 Mut/WT
Type: cell-based
COND: T790M-like-3S, 72 hours
For each of the molecules below, state its ratio of IC50 for cells with mutant EGFR to IC50 for cells with wildtype EGFR (Mut/WT).
Write the value as a bare number.

Could you tell me which ratio of IC50 for cells with mutant EGFR to IC50 for cells with wildtype EGFR (Mut/WT) is on file for CN(C)C/C=C/C(=O)Nc1cc2c(Nc3ccc(Cl)c(Br)c3)ncnc2cn1 [Tarlox-TKI] ?
4.92

# query: ratio of IC50 for cells with mutant EGFR to IC50 for cells with wildtype EGFR (Mut/WT) of entry C=CC(=O)N1CC[C@@H](Oc2nc(Nc3ccc(N4CCC(N5CCN(C)CC5)CC4)cc3)c(C(N)=O)nc2CC)C1 [Naquotinib]
0.4037

Reported ratio of IC50 for cells with mutant EGFR to IC50 for cells with wildtype EGFR (Mut/WT), molecule CNC(=O)CN1CCC(Oc2cc3c(Nc4cccc(Cl)c4F)ncnc3cc2OC)CC1 [Sapatinib] : ____
70.5

Query (molecule): C=CC(=O)Nc1cc(Nc2ncc(C(=O)OC(C)C)c(-c3cn(C)c4ccccc34)n2)c(OC)cc1N(C)CCN(C)C [TAK-788 (mobocertinib), mobocertinib] ; field requested: ratio of IC50 for cells with mutant EGFR to IC50 for cells with wildtype EGFR (Mut/WT)
1.315

Using the record for COc1cc2ncnc(Nc3cccc(Cl)c3F)c2cc1OC(=O)N1CCN(C)C[C@H]1C [AZD3759] , report its ratio of IC50 for cells with mutant EGFR to IC50 for cells with wildtype EGFR (Mut/WT).
21.82

What measured ratio of IC50 for cells with mutant EGFR to IC50 for cells with wildtype EGFR (Mut/WT) goes with C=CC(=O)Nc1cc(Nc2nccc(-n3cc(CN(C)C)c(-c4ccccc4)n3)n2)c(OC)cc1N1CCOCC1 [Lazertinib] ?
0.2517

// ratio of IC50 for cells with mutant EGFR to IC50 for cells with wildtype EGFR (Mut/WT) lookup, key: C=CC(=O)Nc1cc(Nc2nccc(-c3c[nH]c4ccccc34)n2)c(OC)cc1N(C)CCN(C)C [AZ5104]
1.125
